# System: SNB-19 CNS
# protocol.notes: NCI tumour cell line growth inhibition, 48 h
Listed compounds paired with reported TGI

Before answering, review these 3 worked examples.
- compound: "Cc1ccc(NC2=N[C@]34CC(=O)CC[C@]3(C)[C@H]3CC[C@]5(C)C(=O)CC[C@H]5[C@@H]3C[C@@H]4S2)c(C)c1"
  readout.value: "5.09 µM"
- compound: "O=C(Nc1ccc(Cl)cc1)c1cc2c(cc1Cl)Sc1nccn1S2(=O)=O"
  readout.value: "> 100 µM"
- compound: "CN(C)CCCNCc1ccc(-c2ccc(F)c(Cl)c2)o1"
  readout.value: "32.8 µM"

Turning to the following compound.
Prompt line: Form entry - test system: SNB-19 CNS; read-out: TGI; compound: CCc1cccc(C)c1NC(=O)CC(=O)NNC(N)=S
Response line: > 100 µM

----------
Listed molecules paired with reported GI50
# System: HOP-62 NSCLC
# protocol.notes: NCI tumour cell line growth inhibition, 48 h

- molecule: "O=C(N/N=C/c1c(Cl)cccc1Cl)c1cccnc1Nc1cccc(C(F)(F)F)c1"
  GI50: "3.97 µM"
- molecule: "Cc1cc(Oc2ccccc2)ccc1Nc1ncnc2ccc(-c3cnc(Cl)c(NS(C)(=O)=O)c3)cc12"
  GI50: "2.84 µM"

Prompt line: Fill in the blank: the reported GI50 of CCC(=O)OC1CCC2C3CCC(=O)OC3C(C)(CCC(=O)O)CC12C (stereo not drawn) is ____.
Response line: 7.49 µM

----------
# System: OVCAR-5 ovarian
# protocol.notes: NCI tumour cell line growth inhibition, 48 h; in the data active = GI50 below about 0.43 µM; inactive = the rest
I would appreciate it if you answered using one of these outcomes: 1.0 (active), 0.0 (inactive)

Some solved cases for reference:
- molecule: "COc1ccc(N2CCN(C(=O)c3ccc(C(F)(F)F)nc3Nc3cc(Cl)ccc3C)CC2)cc1"
  assigned.class: 0.0
- molecule: "O=[N+]([O-])c1ccc2c(c1)C(=NO)c1cc([N+](=O)[O-])ccc1-2"
  assigned.class: 0.0
- molecule: "Cn1cc(-c2ccc(-c3cn(C)c4ccc(Cl)cc34)[nH]2)c2cc(Cl)ccc21"
  assigned.class: 0.0
- molecule: "CN(C)CCCn1c2c(c3ccc(-c4ccn[nH]4)cc3c1=O)C(=O)c1ccccc1-2"
  assigned.class: 0.0

Prompt line: For this molecule, state the assay outcome: CC(C)C[C@H](NC(=O)Cn1ccc(Nc2ccccc2)cc1=O)B(O)O
Response line: 0.0

Prompt line: For this molecule, state the assay outcome: COC(=O)C1=CN(CC2=CC(=O)C(C)=CC2=O)C=C(C(=O)OC)C1c1cc(OC)ccc1OC
Response line: 0.0

Prompt line: For this molecule, state the assay outcome: CCC(=O)OC1CCC2C3CCC(=O)OC3C(C)(CCC(=O)O)CC12C (stereo not given)
Response line: 0.0

Prompt line: For this molecule, state the assay outcome: [Cl-].[Nd+3].[O-]/N=C(\c1ccccc1)c1ccccn1.[O-]/N=C(\c1ccccc1)c1ccccn1.[O-]/N=C(\c1ccccc1)c1ccccn1
Response line: 0.0

Prompt line: For this molecule, state the assay outcome: O=C1N[C@@H]2[C@@H](O)[C@@H](O)[C@H](O)C[C@H]2c2cc3c(c(O)c21)OCO3
Response line: 1.0

Prompt line: For this molecule, state the assay outcome: N#CC1=C(N)Oc2c(ccc3ccccc23)C1c1cccs1 (stereo not given)
Response line: 1.0
